# Assay comment: Pharmacokinetic test in rats (intravenous injection and oral administration)
# Type: in vivo, S.D. male rats
# Assay conditions: rat, blood, po, rats, oral vs intravenous; read-out: Bioavailability
Observation type: bioavailability (%)
Record the value in %, omitting the unit from your answer.

IN: Fill blank: measured bioavailability of the molecule CCn1c(CC[C@@H]2CCCN2C(=O)[C@H]2CCCN2CC(=O)O)cc2ccc(C(=N)N)cc21 is ____.
OUT: 32.6

* * *

# Assay comment: Pharmacokinetic test in rats (intravenous injection and oral administration)
# Assay type: in vivo, S.D. male rats
# Assay conditions: rat, blood, iv, 10 mg/kg, i.v. 10 mg/kg, 0.083 h; read-out: Blood concentration, individual rats (Rat-1 to Rat-5)
Observation type: concentration at 0.083 h (ng/mL)
// units = ng/mL; emit number, no label

IN: Query: concentration at 0.083 h; subject: CCn1c(CC[C@@H]2CCCN2C(=O)[C@H]2CCCN2CC(=O)O)cc2ccc(C(=N)N)cc21
OUT: 8790
